# Tested on: Blood
# Method Summary: Antiinflammatory activity in human whole blood assessed as inhibition of IL-1-beta-stimulated IL6 production preincubated 2 hrs before IL1-beta challenge measured after 18 hrs by ELISA
# Format: functional, tissue-based
Quantity Name: Activity

Solved entries (count: 5):
INPUT: So what does the record say about Activity for CCOC(=O)[C@]1(c2ccccc2)N=C(c2ccccc2)N(Cc2ccccc2)[C@@H]1c1ccc([N+](=O)[O-])cc1 (racemic) ?
OUTPUT: Dose-dependent effect

INPUT: Data request, read-out Activity, for CCOC(=O)[C@]1(c2ccccc2)N=C(c2ccccc2)N(Cc2ccc(Br)cc2)[C@@H]1c1ccccc1 (racemic)
OUTPUT: Dose-dependent effect

INPUT: Can you look up the measured Activity of CCCOC(=O)[C@]1(c2ccccc2)N=C(c2ccccc2)N(Cc2ccccc2)[C@@H]1c1ccccc1 (racemic) for me?
OUTPUT: Dose-dependent effect

INPUT: Name the reported Activity value associated with the compound COC(=O)[C@]1(Cc2ccccc2)N=C(c2ccccc2)N(Cc2ccccc2)[C@@H]1c1ccccc1 (racemic)
OUTPUT: Dose-dependent effect

INPUT: I'd like to know its Activity. The compound in question is CCOC(=O)[C@]1(c2ccccc2)N=C(c2ccccc2)N(C(=O)c2ccccc2)[C@@H]1c1ccccc1 (racemic)
OUTPUT: Dose-dependent effect

# next compound below
INPUT: Recorded Activity for CCOC(=O)[C@]1(c2ccccc2)N=C(c2ccccc2)N(Cc2ccccc2)[C@@H]1c1ccc(F)cc1 (racemic) , please?
OUTPUT: Dose-dependent effect
